# SUBJECT_OF_TEST: DNA polymerase kappa (Homo sapiens)
# ASSAY_PROTOCOL: qHTS for Inhibitors of Polymerase Kappa; further: potency means the concentration at half of the fitted maximal effect
# TEST_PARAMETERS: purified Pol kappa, fluorescent DNA synthesis assay, 10 min; series mostly up to 107 µM
Out of some 400,000 compounds screened, about 2,200 (0.55%) were called active. About 1% were inconclusive and are not listed. For the sample, actives were picked, then their nearest neighbours and some compounds at random.
MEASURED_ATTRIBUTE: Potency

Please review the entries below; each comes with its answer.
MOLECULE	Potency
O=C1COc2ccc(-c3csc(-c4ccc(Cl)cc4)n3)cc2N1	inactive
COc1cc2nc(C#Cc3nc4cc(OC)c(OC)cc4[nH]3)[nH]c2cc1OC	inactive
COC(=O)c1ccccc1NS(=O)(=O)c1ccc2c(c1)CCCN2C(C)=O	inactive
CN(c1ccccc1)S(=O)(=O)c1ccc(Cl)c(C(=O)OCC(=O)NCc2ccco2)c1	79.4 µM (active)
COc1ccc(Br)cc1/C=N/Nc1ccc(S(=O)(=O)Nc2ccccc2C(=O)O)cc1[N+](=O)[O-]	39.8 µM (active)
CCc1ccccc1NS(=O)(=O)c1ccc2nc(-c3ccccc3)[nH]c2c1	inactive
CN(C)c1cccc2ccccc12	inactive
Cn1c(N)c(C(=O)COC(=O)c2ccccc2NCc2ccco2)c(=O)n(C)c1=O	inactive
O=C(O)c1c(Br)c(Br)c(Br)c(Br)c1C1c2ccc(O)cc2Oc2cc(O)ccc21	1.12 µM (active)
S=c1[nH]c(=S)c2n[nH]nc2[nH]1	inactive

Give the reported value of Potency for this record: COc1ccc(S(=O)(=O)NC(C)c2ccccc2)cc1C(=O)N1CCCCC1 (stereo unspecified) inactive

Give the reported value of Potency for this record: FC(F)(F)c1ccccc1-c1cc(NCc2ccccc2)ncn1 inactive

Give the reported value of Potency for this record: COCCn1c(=O)c(-c2cc(F)cc(F)c2)nc2cnc(N3CCNCC3)nc21 inactive

Give the reported value of Potency for this record: CC(=O)c1cccc(Nc2ccc3cc(S(=O)(=O)N4CCC(C)CC4)ccc3n2)c1 inactive

Give the reported value of Potency for this record: O=C(COC(=O)c1cc(S(=O)(=O)N2CCOCC2)ccc1Cl)NCCc1ccccc1 inactive
